Answer each item with its documented solubility.
# assay info: Solubility of the compound
# Assay type: physicochemical
State the answer as a number, implicitly in µg/mL.

Query: Suppose we examine the compound Cc1cc([C@H]2CCCN(C(=O)c3ccc4ccccc4c3)C2)n2ncnc2n1 ; what solubility value has been reported?
Reply: 37

Query: Continue with Cc1cc(C2CCCN(C(=O)c3ccc(F)c(C)c3)C2)n2ncnc2n1 (stereo not drawn)
Reply: 35

Query: Continue with O=C(Nc1ccc2c(c1)CCC2)C1CCCN(c2cc(C(F)(F)F)nc3ncnn23)C1 (stereo not drawn)
Reply: 29

Query: Continue with Cc1cc([C@@H]2CCCN(C(=O)c3ccc4ccccc4c3)C2)n2ncnc2n1
Reply: 37

Query: Continue with Cc1cc(C2CCCN(C(=O)c3ccc4ccccc4c3)C2)n2ncnc2n1 (racemic)
Reply: 37

Query: Continue with O=C(Nc1ccc2c(c1)CCC2)C1CCCN(c2ccnc3ncnn23)C1 (stereo not drawn)
Reply: 47

Query: Continue with Cc1cc(C2CCCN(C(=O)c3ccc4c(c3)CCC4)C2)n2ncnc2n1 (stereo not drawn)
Reply: 47

Query: Continue with Cc1cc(C2CCCN(C(=O)c3ccc4c(c3)OCC4)C2)n2ncnc2n1 (stereo not drawn)
Reply: 36
